The measurements presented in this section are drawn from patent US8569267B2.

Each entry below carries its recorded IC50.
target: human Dopamine D2L receptor (Homo sapiens, UniProt P14416); construct: expressed in transfected cells; host or cells: CHO cells; experiment: In vitro binding affinity for human D2L receptor ([3H]Spiperone binding); settings: human D2L receptor-transfected CHO cell membranes, read-out: D2L pIC50 (converted)
Sequence (P14416 whole entry): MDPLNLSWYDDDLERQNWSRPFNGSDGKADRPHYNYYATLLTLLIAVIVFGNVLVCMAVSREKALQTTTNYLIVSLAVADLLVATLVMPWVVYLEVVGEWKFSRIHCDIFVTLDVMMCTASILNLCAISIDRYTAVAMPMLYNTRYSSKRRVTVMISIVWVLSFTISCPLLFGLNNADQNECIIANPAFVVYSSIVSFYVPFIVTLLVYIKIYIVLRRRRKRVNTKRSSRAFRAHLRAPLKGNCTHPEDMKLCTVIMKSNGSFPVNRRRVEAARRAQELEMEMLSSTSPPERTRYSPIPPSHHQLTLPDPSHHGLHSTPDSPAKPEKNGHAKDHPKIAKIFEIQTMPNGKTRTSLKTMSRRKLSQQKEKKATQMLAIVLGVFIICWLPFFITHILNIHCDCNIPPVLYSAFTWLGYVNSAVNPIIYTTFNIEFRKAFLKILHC
Report as a plain number; the unit nM is understood.

Use these answered entries as a reference point.
COc1cc(OC)c(CNC(=O)C2CCN(CC3CC4c5ccccc5Cc5ccc(F)cc5C4O3)CC2)c(OC)c1 (stereo not shown) ... 7.08
O=C(NC1CCN(CC2CC3c4ccccc4Cc4ccc(F)cc4C3O2)CC1)NC1CC1c1ccccc1 (mixture of isomers) ... 11.7
CCOC(=O)C1CCCCN1CC1CC2c3ccccc3Cc3ccc(F)cc3C2O1 (mixture of isomers) ... 355

Which measured IC50 belongs to COc1ccc(N2CCN(CC3CC4c5ccccc5Cc5ccc(F)cc5C4O3)CC2)cc1 (stereo not shown) , tested on human Dopamine D2L receptor (Homo sapiens, UniProt P14416)?
37.2

---

Known IC50 of a selection of compounds
biological target: human cloned 5-HT2A receptor, expressed in L929 cells (Homo sapiens); construct: expressed in transfected cells; host or cells: L929 cells; test: In vitro binding affinity for 5-HT2A receptor ([125I]R91150 radioligand binding); settings: human cloned 5-HT2A receptor in L929 cells, [125I]R91150; read-out: 5-HT2A pIC50 (converted)
Field format: number, assumed nM, no unit text.

Worked examples follow.
COc1ccc(OCC2CCN(C[C@H]3C[C@@H]4c5ccccc5Cc5ccc(F)cc5[C@@H]4O3)C2)cc1 (stereo partly shown) ... 1.58
CC(=O)C1(c2ccccc2)CCN(C(=O)C2CCN(CC3CC4c5ccccc5Cc5ccc(F)cc5C4O3)CC2)CC1 (stereo not shown) ... 4.68

IC50 for COC(=O)c1ccc(CN2CCN(CC3CC4c5ccccc5Cc5ccc(F)cc5C4O3)CC2)cc1 (stereo not shown) ?
30.9

---

molecular target: NET (norepinephrine transporter) (Rattus norvegicus); construct: Cortex from rat brain was collected and homogenised; from tissue; host or cells: rat brain cortex; test: In vitro determination of NET reuptake inhibition ([3H]Nixosetine binding, rat brain cortex); settings: rat brain cortex
Let's look at some compounds and their measured NET pIC50.

O=C(O)C(=O)O.OC1CCN(CC2CC3c4ccccc4Oc4ccc(Cl)cc4C3O2)CC1 (stereo not drawn) [Compound 284] ... <5
O=C(O)C(=O)O.OCC1CCCN(C[C@H]2C[C@@H]3c4ccccc4Cc4ccc(F)cc4[C@@H]3O2)C1 (single isomer, unassigned) [Compound 148] ... <5
O=C(O)C(=O)O.OC1CCN(CC2CC3c4ccccc4Oc4ccc(Cl)cc4C3O2)CC1 (stereo not drawn) [Compound 285] ... <5
CC1CN(CC2CC3c4ccccc4Cc4ccc(F)cc4C3O2)C(C)CN1.O=C(O)C(=O)O (mixture of isomers) ... <5
Fc1ccc2c(c1)[C@@H]1O[C@@H](CN3CCCNCC3)C[C@@H]1c1ccccc1C2.O=C(O)C(=O)O.O=C(O)C(=O)O ... 5.10

Attention now shifts to the item below.
Consider the compound shown here: CC1c2ccccc2C2CC(CN3CCC(O)C3)OC2c2cc(F)ccc21.O=C(O)C(=O)O (mixture of isomers) What is its recorded NET pIC50?
7.33

---

biological target: NET (norepinephrine transporter) (Rattus norvegicus, UniProt Q63380); construct: Cortex from rat brain was collected and homogenised; from tissue; host or cells: rat brain cortex; assay: In vitro determination of NET reuptake inhibition ([3H]Nixosetine binding, rat brain cortex); details: rat brain cortex, read-out: NET pIC50 (converted)
Sequence (Q63380 1-617): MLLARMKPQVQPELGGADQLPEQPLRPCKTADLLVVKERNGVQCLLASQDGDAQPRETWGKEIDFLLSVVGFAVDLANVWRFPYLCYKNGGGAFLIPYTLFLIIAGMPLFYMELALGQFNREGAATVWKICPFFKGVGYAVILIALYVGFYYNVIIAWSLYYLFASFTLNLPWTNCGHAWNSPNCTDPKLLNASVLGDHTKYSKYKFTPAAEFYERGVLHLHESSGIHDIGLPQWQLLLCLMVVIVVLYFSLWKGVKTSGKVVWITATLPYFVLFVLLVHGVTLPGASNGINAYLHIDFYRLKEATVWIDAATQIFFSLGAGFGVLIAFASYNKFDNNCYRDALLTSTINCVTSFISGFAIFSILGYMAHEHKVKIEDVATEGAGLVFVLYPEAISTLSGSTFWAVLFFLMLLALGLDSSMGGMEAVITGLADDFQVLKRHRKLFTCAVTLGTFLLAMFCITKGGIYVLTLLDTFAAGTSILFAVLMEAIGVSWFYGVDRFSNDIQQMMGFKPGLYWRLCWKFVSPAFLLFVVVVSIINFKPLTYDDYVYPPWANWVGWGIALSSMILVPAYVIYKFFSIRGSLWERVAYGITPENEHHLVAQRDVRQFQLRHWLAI
We begin with a simple list: items and their reported IC50.
Enter your answer as a number in µM; do not include the unit.

Fc1ccc2c(c1)C1OC(CN3CCN(Cc4ccc(-c5ccc(Cl)cc5)o4)CC3)CC1c1ccccc1C2 (stereo not shown) ... 3.47

Here is another compound to look at.
Name the recorded IC50 for C=CCN(C)C(=O)C1CCN(CC2CC3c4ccccc4Cc4ccc(F)cc4C3O2)CC1 (stereo not shown) .
9.77

---

biological target: NET (norepinephrine transporter) (Rattus norvegicus, UniProt Q63380); construct: Cortex from rat brain was collected and homogenised; from tissue; host or cells: rat brain cortex; test: In vitro determination of NET reuptake inhibition ([3H]Nixosetine binding, rat brain cortex); settings: rat brain cortex, read-out: NET pIC50 (converted)
Rule for this label: yes means IC50 is less than 6 µM; no means IC50 is at least 6 µM.

// known answers, use as guide
NCCN1CCN(CC2CC3c4ccccc4Cc4ccc(F)cc4C3O2)CC1 (centres unmarked) [Compound 47] ... no
OC1CCCN(CC2CC3c4ccccc4Cc4ccc(F)cc4C3O2)C1 (racemic) [Compound 141] ... yes
COc1ccc(C)c(NC(=O)C2CCN(CC3CC4c5ccccc5Cc5ccc(F)cc5C4O3)CC2)c1 (centres unmarked) [Compound 191] ... no
O=C(C1CCN(CC2CC3c4ccccc4Cc4ccc(F)cc4C3O2)CC1)N1CCC1 (centres unmarked) [Compound 200] ... no
O=C(Nc1ccc2c(c1)CCC2)NC1CCN(CC2CC3c4ccccc4Cc4ccc(F)cc4C3O2)CC1 (centres unmarked) [Compound 238] ... no
OC(COc1ccc(Cl)cc1)CN1CCN(C[C@H]2C[C@@H]3c4ccccc4Cc4ccc(F)cc4[C@@H]3O2)CC1 (some centres unmarked) [Compound 56] ... yes
CC(=O)C1(c2ccccc2)CCN(C(=O)C2CCN(CC3CC4c5ccccc5Cc5ccc(F)cc5C4O3)CC2)CC1 (centres unmarked) [Compound 209] ... yes

Here is another compound to look at.
Does this compound meet the criterion IC50 < 6 µM? O=C(OCc1ccccc1)N1CCN(CC2CC3c4ccccc4Cc4ccc(F)cc4C3O2)CC1 (centres unmarked) [Compound 85]
no

---

target: human Dopamine D2L receptor (Homo sapiens, UniProt P14416); construct: expressed in transfected cells; host or cells: CHO cells; experiment: In vitro binding affinity for human D2L receptor ([3H]Spiperone binding); settings: human D2L receptor-transfected CHO cell membranes, read-out: D2L pIC50 (converted)
Assay readout: IC50 (nM)
Write down the numeric answer in nM and omit the unit.

O=C(NC1CCN(CC2CC3c4ccccc4Cc4ccc(F)cc4C3O2)CC1)c1ccccc1Cl (centres unmarked) ... 5.25
N#CCCNC(=O)C1CCN(CC2CC3c4ccccc4Cc4ccc(F)cc4C3O2)CC1 (centres unmarked) ... 15.1
CN(C)CCC1CN(C[C@H]2C[C@@H]3c4ccccc4Cc4ccc(F)cc4[C@@H]3O2)CCO1 (some centres unmarked) ... 389
O=C(NCc1ccccn1)C1CCN(CC2CC3c4ccccc4Cc4ccc(F)cc4C3O2)CC1 (centres unmarked) ... 4.57
O=C(NC1CCCCCCC1)N1CCN(C[C@H]2C[C@@H]3c4ccccc4Cc4ccc(F)cc4[C@@H]3O2)CC1 ... 42.7

Lab note: need IC50 with human Dopamine D2L receptor (Homo sapiens, UniProt P14416) for entry Fc1ccc(OCCN2CCN(CC3CC4c5ccccc5Cc5ccc(F)cc5C4O3)CC2)cc1 (centres unmarked) , please look it up.
2.45

Recorded IC50 for O=C(NCc1cccc(I)c1)C1CCN(CC2CC3c4ccccc4Cc4ccc(F)cc4C3O2)CC1 (centres unmarked) with human Dopamine D2L receptor (Homo sapiens, UniProt P14416), please?
14.1

Item `OCCC1CCN(C[C@H]2C[C@@H]3c4ccccc4Cc4ccc(F)cc4[C@@H]3O2)CC1` with human Dopamine D2L receptor (Homo sapiens, UniProt P14416) - IC50?
1.35

---

biological target: NET (norepinephrine transporter) (Rattus norvegicus); construct: Cortex from rat brain was collected and homogenised; from tissue; host or cells: rat brain cortex; test: In vitro determination of NET reuptake inhibition ([3H]Nixosetine binding, rat brain cortex); conditions: rat brain cortex, read-out: NET pIC50 (converted)
Assay readout: IC50 (µM)
Enter your answer as a number in µM; do not include the unit.

CCOC(=O)C=C1CCN(CC2CC3c4ccccc4Cc4ccc(F)cc4C3O2)CC1 (centres unmarked) ... 3.63
CCOC(=O)CC1CN(C[C@H]2C[C@@H]3c4ccccc4Cc4ccc(F)cc4[C@@H]3O2)CCO1 (some centres unmarked) ... 2.45
Fc1ccc2c(c1)C1OC(CN3CCN(Cc4cc5ccccc5o4)CC3)CC1c1ccccc1C2 (centres unmarked) ... 2.69
O=C(NCc1ccccc1)OCC1CCN(CC2CC3c4ccccc4Cc4ccc(F)cc4C3O2)C1 (mixture of isomers) ... 2.69
CCOC(=O)CC1CCN(CC2CC3c4ccccc4Cc4ccc(F)cc4C3O2)CC1 (centres unmarked) ... 5.5

Any idea what its IC50 is? The molecule is Fc1ccc2c(c1)C1OC(CN3CCN(c4nc5ccccc5o4)CC3)CC1c1ccccc1C2 (centres unmarked)
9.77

Return reported IC50; argument: Fc1ccc2c(c1)C1OC(CN3CCC(Oc4ccccc4F)C3)CC1c1ccccc1C2 (mixture of isomers)
6.17

Would you mind telling me what IC50 value was observed for OCCC1CN(C[C@H]2C[C@@H]3c4ccccc4Cc4ccc(F)cc4[C@@H]3O2)CCO1 (some centres unmarked) ?
0.417

Which value of IC50 has been reported for NCCNC(=S)NC1CCN(CC2CC3c4ccccc4Cc4ccc(F)cc4C3O2)CC1 (centres unmarked) in the records?
6.46

Would you kindly share the measured IC50 for OC1CCN(CC2CC3c4ccccc4Sc4ccc(F)cc4C3O2)C1 (racemic) ?
0.282

# IC50 lookup, item CCOC(=O)CNC(=S)N1CCN(CC2CC3c4ccccc4Cc4ccc(F)cc4C3O2)CC1 (centres unmarked)
5.75

Can you look up the measured IC50 of COC(=O)c1ccc(CN2CCN(CC3CC4c5ccccc5Cc5ccc(F)cc5C4O3)CC2)cc1 (centres unmarked) for me?
1.17

Param item = N#CCCC1CCCN(CC2CC3c4ccccc4Cc4ccc(F)cc4C3O2)C1 (mixture of isomers) ; retrieve measured IC50.
1.62
